# System: SNB-75 CNS
# experimental.details: NCI tumour cell line growth inhibition, 48 h
property: TGI (µM)
Only the number, expressed in µM, is required.

Challenge: Data request, read-out TGI, for Fc1ccc(Nc2nc(NCCNc3ccnc4cc(Cl)ccc34)nc(N3CCOCC3)n2)cc1
Response given: 16.2

Challenge: Now try Nc1nc(Nc2cccc(F)c2)nc2ccccc12 .
Response given: 50.4

###

# Test system: HCT-15 colon
# experimental.details: NCI tumour cell line growth inhibition, 48 h
property: TGI (µM)
Only the number, expressed in µM, is required.

Cn1cc(-c2ccc(CNc3cc(-c4cnc5cc(OCCCN6CCCC6)ccn45)ncn3)cc2)cn1 :: 12

Now consider the entry below.
Challenge: Data request, read-out TGI, for S=c1ssc(Sc2ccccn2)c1Cl
Response given: 18.1

###

# Tested on: LOX IMVI melanoma
# experimental.details: NCI tumour cell line growth inhibition, 48 h; in the data active = GI50 below about 0.43 µM; inactive = the rest
Respond with a class label; see active, inactive

The following compounds have reported results that may help.
CC[CH2][Pb]([CH2]CC)([CH2]CC)[NH]S(=O)(=O)c1ccc(C)cc1 :: active
Cn1cc(-c2ccc(CNc3cc(-c4cnc5cc(OCCCN6CCCC6)ccn45)ncn3)cc2)cn1 :: inactive
CCOC(=O)c1c(C)n(Cc2ccc(Cl)cc2Cl)c2c1cc1oc(=O)c(=O)n3c(Cc4ccccc4)nc2c13 :: inactive

Challenge: // outcome(item) with item = O=c1[nH]cnc2c(C3OC(CO)C(O)C3O)scc12 (centres undefined)
Response given: inactive

Challenge: Now try CC1=CC(=O)C(C(C)=Nc2ccccc2Cl)C(=O)O1 (centres undefined) .
Response given: inactive

Challenge: Now try Cc1ccc2c(c1)ncn2-c1ncnc2c1CC(C)c1ccccc1N2C (centres undefined) .
Response given: active

Challenge: Now try CC(=O)OC1C2(CC3N4C(=O)C5(CO)SSC4(CC31O)C(=O)N5C)OC(C)C(C)(C)C2=O (centres undefined) .
Response given: active

Challenge: Now try O=C(NN1C(=O)CSC1c1ccc(Cl)cc1)c1[nH]c2ccc(F)cc2c1-c1ccccc1 (centres undefined) .
Response given: inactive

Challenge: Now try COc1ccccc1-c1c(C)nn2c(NCc3ccccn3)cc(C)nc12 .
Response given: inactive

###

The following molecules are listed with their measured TGI values.
# System: M14 melanoma
# experimental.details: NCI tumour cell line growth inhibition, 48 h

Example entries and their recorded answers appear below.
CCOC(=O)N1CCN(S(=O)(=O)c2oc(-c3ccc(Cl)cc3)nc2C#N)CC1 :: 3.67 µM
CN1C(=O)C(O)CC1c1cccc(F)c1 (stereo unspecified) :: > 100 µM
NC(N)=NC(N)=Nc1c(F)c(F)c(F)c(F)c1F :: 48.4 µM
CC1=CC(=O)C(C(C)=Nc2ccccc2Cl)C(=O)O1 (stereo unspecified) :: > 100 µM
CCOC(=O)C(O)(NC(=O)Nc1ccc(F)cc1)C(F)(F)F (stereo unspecified) :: > 100 µM

Challenge: Data request, read-out TGI, for COC(=O)[C@@H]1CCCN1C(=O)[C@@H]1CCCN1C(=O)[C@@H](Cc1c[nH]c2ccccc12)NC(=S)Nc1cc(C(F)(F)F)cc(C(F)(F)F)c1
Response given: 21.1 µM

Challenge: Now try CC(=O)c1cccc(NCn2nnc3ccccc32)c1 .
Response given: > 100 µM

Challenge: Now try CC(C)(C)OC(=O)CN1CCNCCN(CC(=O)OC(C)(C)C)CC1 .
Response given: > 100 µM

Challenge: Now try COc1cc2cc(Oc3ccc(NC(=O)c4ccc(Cl)c(C(F)(F)F)c4)cc3)c(C)nc2cc1OC .
Response given: > 100 µM

Challenge: Now try COc1ccc(-c2ccc(/C=N/n3c(COc4ccc(Cl)cc4)n[nH]c3=S)o2)c([N+](=O)[O-])c1 .
Response given: > 100 µM

Challenge: Now try CC1OC(c2ccccc2)=CC(OCc2ccccc2)[C@H]1OCc1ccccc1 (stereo partly specified) .
Response given: > 10 µM

Challenge: Now try CCSc1nc(COC(=O)NC)c(COC(=O)NC)n1C .
Response given: > 83 µM

Challenge: Now try O=C1C(N=Nc2ccc(-c3nc4ccccc4o3)cc2)NC(=S)N1c1ccccc1 (stereo unspecified) .
Response given: > 100 µM

Challenge: Now try Cc1cc(C)c(C)c(-n2[nH]c(=O)n(C)c2=O)c1C .
Response given: > 100 µM
